Counter-ions that a name gives are not always drawn.
READOUT: melting point

Record excerpt, results attached:
molecule="Cc1c(C(F)(F)F)nc2c(C(F)(F)F)cccc2c1C(O)c1cccs1 (stereo not drawn)" endpoint_value="125.1 to 125.8 °C"
molecule="COc1cc(C(O)c2ccccn2)c2cccc(C)c2n1 (stereo not drawn)" endpoint_value="126.8 to 127.6 °C"
molecule="O=C(NCc1ccccc1)c1cc(C(O)C2CCCCC2)c2ccccc2n1 (stereo not drawn)" endpoint_value="152.8 to 153.3 °C"

Turning to the following molecule.
[in] Tell us which melting point value is on record for Cc1cc(C(O)c2ccccc2)c2ccccc2n1 (stereo not drawn) (as salt: salt)
[out] 192 °C (dec.)
